Read-out: Urokinase-type plasminogen activator receptor (uPAR), PLAUR (gene 5329)
experimental details: BSK_CASM3C_uPAR: BioMAP Diversity Plus: CASM3C Assay for Urokinase-type plasminogen activator receptor (uPAR) Biomarker Activity (AID 2283054);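 note: cell-surface uPAR protein level quantified by ELISA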
test context: primary human coronary artery smooth muscle cells; actives raise or lower the signal
Calls of active or inactive are those of the source. Rule for the calls: active = hit-call score of the fitted dose curve at least 0.9, where 1 is the maximum; inactive = score below 0.9.
Mark one answer only. Choices: label 1 = active, label 0 = inactive

{"columns": ["compound", "group"],
 "data": [
  ["CC(=O)C1(C)CC2=C(CCCC2(C)C)CC1C (configuration not stated)", "label 1"],
  ["CC(C=O)Cc1ccc(C(C)(C)C)cc1 (configuration not stated)", "label 1"],
  ["CS(=O)(=O)c1ccc(C2=C(c3ccccc3)C(=O)OC2)cc1", "label 0"],
  ["CS(=O)(=O)OCCCCOS(C)(=O)=O", "label 0"],
  ["CN(c1nccc(=O)[nH]1)C1CCN(c2nc3ccccc3n2Cc2ccc(F)cc2)CC1", "label 0"]
]}

What is the recorded call for this compound in the test? CCCCN(CCCC)C(=O)N(CCCC)CCCC
label 1

What is the recorded call for this compound in the test? IC(I)I
label 1

* * *

Read-out: E-selectin (Homo sapiens) (UniProt P16581)
Sequence (P16581 whole entry, looked up): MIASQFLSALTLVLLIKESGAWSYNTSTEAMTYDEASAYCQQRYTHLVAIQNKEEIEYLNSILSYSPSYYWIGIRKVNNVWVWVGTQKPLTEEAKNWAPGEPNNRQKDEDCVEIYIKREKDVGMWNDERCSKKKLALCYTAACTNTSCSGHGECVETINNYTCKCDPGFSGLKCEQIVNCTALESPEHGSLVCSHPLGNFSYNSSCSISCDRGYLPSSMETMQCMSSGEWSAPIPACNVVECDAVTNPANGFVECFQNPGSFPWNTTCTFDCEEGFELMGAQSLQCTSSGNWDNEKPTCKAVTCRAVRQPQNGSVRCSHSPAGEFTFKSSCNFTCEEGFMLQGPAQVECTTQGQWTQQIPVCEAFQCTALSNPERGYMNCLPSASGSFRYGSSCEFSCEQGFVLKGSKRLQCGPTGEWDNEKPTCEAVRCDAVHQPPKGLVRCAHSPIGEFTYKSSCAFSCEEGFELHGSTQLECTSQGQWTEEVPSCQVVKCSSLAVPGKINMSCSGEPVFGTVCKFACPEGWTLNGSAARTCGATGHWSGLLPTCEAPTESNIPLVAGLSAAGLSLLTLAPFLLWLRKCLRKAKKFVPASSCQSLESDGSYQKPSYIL
experimental details: BSK_SAg_Eselectin: BioMAP Diversity Plus: SAg Assay for Eselectin Biomarker Activity (AID 2283091)
test context: primary human HUVEC with PBMC; actives raise or lower the signal
Method: BSK_SAg is a cell-based, multiplexed-readout assay that uses umbilical vein endothelium and peripheral blood mononuclear cells, a human vascular primary cell co-culture, with measurements taken at 24 hours after chemical dosing in a 96-well plate.BSK_SAg_Eselectin is an assay component measured in the BSK_SAg assay. It measures E-selectin antibody related to regulation of gene expression using ELISA technology.Data from the assay component BSK_SAg_Eselectin was analyzed into 1 assay endpoint. […]
The source made the active and inactive calls. How the source made its calls: active means hit-call score of the fitted dose curve at least 0.9, where 1 is the maximum; inactive means score below 0.9.
Mark one answer only. Choices: 1 = active, -1 = inactive

Some solved entries appear below for comparison.
{"columns": ["compound", "group"],
 "data": [
  ["CC=Cc1ccc(OCC)c(O)c1", -1],
  ["CC(C)(C)CC(C)(C)c1ccc(OCCOCC[N+](C)(C)Cc2ccccc2)cc1", 1],
  ["COc1ccc(OC)c(N=Nc2c(O)ccc3ccccc23)c1", -1],
  ["O=C(Nc1ccc2c(O)c(N=Nc3ccc(N=Nc4ccc(S(=O)(=O)O)cc4)cc3)c(S(=O)(=O)O)cc2c1)c1ccccc1", -1],
  ["CS(=O)(=O)c1ccc(C2=C(c3ccccc3)C(=O)OC2)cc1", -1]
]}

Kindly review the next compound as well.
What is the recorded call for this compound in the test? C=C(C)C(=O)OCCOCCOCCOCCOC(=O)C(=C)C
-1

* * *

Read-out: Interferon-gamma inducible Protein 10 (IP10), CXCL10 (gene 3627)
experimental details: BSK_BE3C_IP10: BioMAP Diversity Plus: BE3C Assay for Interferon-gamma inducible Protein 10 (IP10) Biomarker Activity (AID 2283034)
test context: primary human bronchial epithelial cells; actives raise or lower the signal
Active and inactive are the calls of the source. How the source made its calls: active means hit-call score of the fitted dose curve at least 0.9, where 1 is the maximum; inactive means score below 0.9.
quantity kind: outcome

{"columns": ["molecule", "meas value"],
 "data": [
  ["c1ccc(Oc2ccccc2)cc1", "inactive"],
  ["CC=Cc1ccc(OCC)c(O)c1", "inactive"],
  ["CCCCCCC(CO)CCCC (stereo not drawn)", "inactive"]
]}
